Experiment: qHTS assay to identify small molecule antagonists of the sonic hedgehog signaling (Shh) pathway (AID 1259369); note: nearly all actives have a fitted effect of over 45% in size; note: potency is the fitted concentration of half-maximal effect
Conditions: NIH/3T3 Gli1-Luc reporter, Shh antagonist, luminescence 24 h; series mostly up to 92.4 µM
Text: U.S. Tox21 Program National Center for Advancing Translational Sciences [NCATS] NIH Chemical Genomics Center [NCGC] U.S. Environmental Protection Agency [EPA] National Institutes of Environmental Health Sciences [NIEHS] National Toxicology Program [NTP] U.S. Food and Drug Administration [FDA] Tox21 Assay Overview: The sonic hedgehog (Shh) pathway is essential for normal embryonic development. Dysregulation of the Shh pathway can cause severe developmental defects in organs. […]
Inconclusive results are not listed. Activity calls are given as the source filed them. Calls come from the whole dose curve.
quantity measured: Potency

Given the compound COc1cc(CC(C)N)cc2c1OCO2 (configuration not stated) , what is its reported Potency?
inactive

Given the compound `CCBr` , what is its reported Potency?
inactive

Given the compound `CCOS(C)(=O)=O` , what is its reported Potency?
inactive

Given the compound `C=CCOC(C)=O` , what is its reported Potency?
inactive

Given the compound `ClC=C(Cl)Cl` , what is its reported Potency?
inactive

Given the compound `C=CC(=O)OC` , what is its reported Potency?
inactive

Given the compound `CCCC(=O)Cl` , what is its reported Potency?
inactive

Given the compound `CCOC(=O)CBr` , what is its reported Potency?
inactive

Given the compound `Cc1ccccc1C(=O)Nc1cccc(OC(C)C)c1` , what is its reported Potency?
17.2 µM (active)

Given the compound `CCCN(CC1CC1)c1c([N+](=O)[O-])cc(C(F)(F)F)cc1[N+](=O)[O-]` , what is its reported Potency?
inactive

Others:
Given the compound BrCC(Br)C1CCC(Br)C(Br)C1 (configuration not stated) , what is its reported Potency?
inactive

Given the compound CNP(=O)(OC)Oc1ccc(C(C)(C)C)cc1Cl (configuration not stated) , what is its reported Potency?
27.3 µM (active)

Given the compound `S=C=NCc1ccccc1` , what is its reported Potency?
inactive

Given the compound `C=CCCl` , what is its reported Potency?
inactive

Given the compound CC/C(=N\OC/C=C/Cl)C1=C(O)CC(C2CCOCC2)CC1=O (configuration not stated) , what is its reported Potency?
inactive

Given the compound O=C(NC(=O)c1c(F)cccc1F)Nc1ccc(OC(F)(F)C(F)OC(F)(F)F)c(Cl)c1 (configuration not stated) , what is its reported Potency?
inactive

Given the compound `O=C(CCl)c1ccc(Cl)cc1Cl` , what is its reported Potency?
5.96 µM (active)

Given the compound CC(C)N(CCC(C(N)=O)(c1ccccc1)c1ccccn1)C(C)C (configuration not stated) , what is its reported Potency?
inactive

Given the compound `N#CCC#N` , what is its reported Potency?
inactive

Given the compound `C=CC[C@]1(O)CC[C@H]2[C@@H]3CCC4=CC(=O)CCC4=C3C=C[C@@]21C` , what is its reported Potency?
13.3 µM (active)
